assay: XTT based cytotoxicity test on A549 cells; format: cell-based, human; details: human; A549 cells, 24 h, XTT, normalized against DMSO controls, two independent experiments; read-out: % Viable Cells at 400 μM
metric: viability at 24 h, 400 µM (%)
Please reply with the bare figure in % and do not write the unit itself.

Some solved entries appear below for comparison.
[
  {
    "compound": "CCC(C)CCCCCC1C=CC(=O)O1 (stereo not shown)",
    "metric": "viability at 24 h, 400 µM",
    "u": "%",
    "meas value": 3
  },
  {
    "compound": "CCC(C)(O)CCCCC[C@H]1C=CC(=O)O1 (stereo partly shown)",
    "metric": "viability at 24 h, 400 µM",
    "u": "%",
    "meas value": 106
  },
  {
    "compound": "CC(=O)[C@H](C)CCCCC[C@H]1C=CC(=O)O1",
    "metric": "viability at 24 h, 400 µM",
    "u": "%",
    "meas value": 102
  }
]

Now for another entry.
Return reported viability at 24 h, 400 µM; argument: C[C@H](O)[C@H](C)CCCCC[C@H]1C=CC(=O)O1 98

* * *

assay: XTT based cytotoxicity test on A549 cells; assay type: cell-based, human; conditions: human; A549 cells, 24 h, XTT, normalized against DMSO controls, two independent experiments; read-out: % Viable Cells at 800 μM
# key: entry, value: viability at 24 h, 800 µM
Please reply with the bare figure in % and do not write the unit itself.

Some solved entries appear below for comparison.
[
  {
    "compound": "CCC(C)CCCCCC1C=CC(=O)O1 (stereo not shown)",
    "u": "%",
    "meas value": 3
  },
  {
    "compound": "CC(=O)[C@H](C)CCCCC[C@H]1C=CC(=O)O1",
    "u": "%",
    "meas value": 101
  },
  {
    "compound": "C[C@H](O)[C@H](C)CCCCC[C@H]1C=CC(=O)O1",
    "u": "%",
    "meas value": 96
  }
]

Now for another entry.
Return reported viability at 24 h, 800 µM; argument: CCC(C)(O)CCCCC[C@H]1C=CC(=O)O1 (stereo partly shown) 100
